Source: patent US6369066B1

Test system: H9
Protocol Text: Cell culture inhibitory dose (CCID50) in H9
Assay type: cell-based
Settings: cell counting, trypan blue exclusion, 7 days post drug treatment
Assay Metric: CCID50 H9

{"columns": ["Compound", "CCID50 H9"],
 "data": [
  ["Nc1nc(=O)n([C@H]2CO[C@@H](CO)S2)cc1F [compound 3]", ">500 µM"],
  ["Nc1ccn([C@@H]2CO[C@H](CO)S2)c(=O)n1 [Compound #2]", ">500 µM"],
  ["Nc1nc(=O)n([C@@H]2CO[C@H](CO)S2)cc1F [compound 4]", ">500 µM"],
  ["Nc1ccn([C@H]2CO[C@@H](CO)S2)c(=O)n1 [Compound #1]", ">500 µM"]
]}

Now for the compound whose CCID50 H9 we want.
query: So what CCID50 H9 did Cc1cn([C@H]2C[C@H](N=[N+]=[N-])[C@@H](CO)O2)c(=O)[nH]c1=O [AZT, 3′-azido-3′-deoxythymidine, reference compound] get with H9?
result: 200 µM

====

Test system: HIV-1 (HTLV-IIIB)
Protocol Text: CBM assay, IC50 from RT levels in culture fluids
Format: cell-based
Settings: Human immunodeficiency virus 1
Assay Metric: IC50

{"columns": ["Compound", "Reported Measurement"],
 "data": [
  ["Nc1ccn(C2COC(CO)S2)c(=O)n1 (stereo not drawn)", "0.03 µg/mL"]
]}

query: I'd like to know its IC50. The compound in question is `Nc1nc(=O)n([C@@H]2CO[C@H](CO)S2)cc1F`
result: 0.02 to 0.05 µg/mL

query: I'd like to know its IC50. The compound in question is `Nc1ccn([C@@H]2CO[C@H](CO)S2)c(=O)n1`
result: 0.03 to 1.22 µg/mL

query: I'd like to know its IC50. The compound in question is `Nc1nc(=O)n([C@H]2CO[C@@H](CO)S2)cc1F`
result: 0.002 to 0.05 µg/mL

query: I'd like to know its IC50. The compound in question is Cc1cn([C@H]2C[C@H](N=[N+]=[N-])[C@@H](CO)O2)c(=O)[nH]c1=O [AZT, 3′-azido-3′-deoxythymidine, reference compound]
result: < 0.002 µg/mL

query: I'd like to know its IC50. The compound in question is `Nc1ccn([C@H]2CO[C@@H](CO)S2)c(=O)n1`
result: 0.05 to 1.22 µg/mL

====

CCID50 Jurkat values for the compounds below.
Test system: Jurkat
Protocol Text: Cell culture inhibitory dose (CCID50) in Jurkat
Format: cell-based
Settings: cell counting, trypan blue exclusion, 7 days post drug treatment
Procedure: Evaluation of Cell Culture Inhibitory Dose (CCID50) Cell growth was determined by cell counting and viability by trypan blue exclusion 7 days post drug treatment. CCID50 is expressed as the drug concentration which inhibits 50% of cell growth.

Reference set (3 entries):
{"columns": ["Compound", "Measurement Target", "Reported Measurement"],
 "data": [
  ["Cc1cn([C@H]2C[C@H](N=[N+]=[N-])[C@@H](CO)O2)c(=O)[nH]c1=O [AZT, 3′-azido-3′-deoxythymidine, reference compound]", "Jurkat", ">500 µM"],
  ["Nc1nc(=O)n([C@@H]2CO[C@H](CO)S2)cc1F [compound 4]", "Jurkat", ">500 µM"],
  ["Nc1nc(=O)n([C@H]2CO[C@@H](CO)S2)cc1F [compound 3]", "Jurkat", ">500 µM"]
]}

query: I'd like to know its CCID50 Jurkat. The compound in question is Nc1ccn([C@@H]2CO[C@H](CO)S2)c(=O)n1 [Compound #2]
result: 11 µM

query: I'd like to know its CCID50 Jurkat. The compound in question is Nc1ccn([C@H]2CO[C@@H](CO)S2)c(=O)n1 [Compound #1]
result: 450 µM

====

Test system: MT-4 cells
Protocol Text: Formazan (MTT) assay, drug-induced cytotoxicity in uninfected MT-4 cells
Format: cell-based
Settings: human, 7 days
CD50 (50% cytotoxic dose) values for the compounds below.

Reference set (2 entries):
{"columns": ["Compound", "Reported Measurement"],
 "data": [
  ["Nc1nc(=O)n([C@H]2CO[C@@H](CO)S2)cc1F", ">100 µg/mL"],
  ["Nc1ccn(C2COC(CO)S2)c(=O)n1 (centres unmarked)", ">100 µg/mL"]
]}

query: I'd like to know its CD50 (50% cytotoxic dose). The compound in question is `Nc1nc(=O)n([C@@H]2CO[C@H](CO)S2)cc1F`
result: 100 µg/mL

query: I'd like to know its CD50 (50% cytotoxic dose). The compound in question is `Nc1ccn([C@H]2CO[C@@H](CO)S2)c(=O)n1`
result: >100 µg/mL

query: I'd like to know its CD50 (50% cytotoxic dose). The compound in question is `Nc1ccn([C@@H]2CO[C@H](CO)S2)c(=O)n1`
result: >100 µg/mL

====

System: CBMCs
Protocol Text: Cell culture inhibitory dose (CCID50) in CBMCs
Type: cell-based
Settings: cell counting, trypan blue exclusion, 7 days post drug treatment
Experimental: Evaluation of Cell Culture Inhibitory Dose (CCID50) Cell growth was determined by cell counting and viability by trypan blue exclusion 7 days post drug treatment. CCID50 is expressed as the drug concentration which inhibits 50% of cell growth.
CCID50 CBMCs values for the compounds below.
# value in µM; strip the unit string

{"columns": ["Compound", "Assay Metric", "Reported Measurement"],
 "data": [
  ["Cc1cn([C@H]2C[C@H](N=[N+]=[N-])[C@@H](CO)O2)c(=O)[nH]c1=O [AZT, 3′-azido-3′-deoxythymidine, reference compound]", "CCID50 CBMCs", 45]
]}

query: I'd like to know its CCID50 CBMCs. The compound in question is Nc1ccn([C@@H]2CO[C@H](CO)S2)c(=O)n1 [Compound #2]
result: 105

====

CCID50 U937 values for the compounds below.
Test system: U937
Protocol Text: Cell culture inhibitory dose (CCID50) in U937
Type: cell-based
Settings: cell counting, trypan blue exclusion, 7 days post drug treatment
# value in µM; strip the unit string

{"columns": ["Compound", "Unit Of Measure", "Reported Measurement"],
 "data": [
  ["Cc1cn([C@H]2C[C@H](N=[N+]=[N-])[C@@H](CO)O2)c(=O)[nH]c1=O [AZT, 3′-azido-3′-deoxythymidine, reference compound]", "µM", 110]
]}

Now for the compound whose CCID50 U937 we want.
query: I'd like to know its CCID50 U937. The compound in question is `Nc1ccn([C@@H]2CO[C@H](CO)S2)c(=O)n1`
result: 22

====

System: MT-4
Protocol Text: Cell culture inhibitory dose (CCID50) in MT-4
Assay type: cell-based
Settings: cell counting, trypan blue exclusion, 7 days post drug treatment
CCID50 MT-4 values for the compounds below.

{"columns": ["Compound", "CCID50 MT-4"],
 "data": [
  ["Nc1nc(=O)n([C@H]2CO[C@@H](CO)S2)cc1F", ">500 µM"],
  ["Nc1nc(=O)n([C@@H]2CO[C@H](CO)S2)cc1F", ">500 µM"],
  ["Nc1ccn([C@@H]2CO[C@H](CO)S2)c(=O)n1", ">500 µM"],
  ["Cc1cn([C@H]2C[C@H](N=[N+]=[N-])[C@@H](CO)O2)c(=O)[nH]c1=O [AZT, 3′-azido-3′-deoxythymidine, reference compound]", "110 µM"]
]}

query: I'd like to know its CCID50 MT-4. The compound in question is `Nc1ccn([C@H]2CO[C@@H](CO)S2)c(=O)n1`
result: >500 µM

====

CCID50 CEM values for the compounds below.
Test system: CEM
Protocol Text: Cell culture inhibitory dose (CCID50) in CEM
Assay type: cell-based
Settings: cell counting, trypan blue exclusion, 7 days post drug treatment
# value in µM; strip the unit string

{"columns": ["Compound", "Assay Metric", "Unit Of Measure", "Reported Measurement"],
 "data": [
  ["Nc1ccn([C@@H]2CO[C@H](CO)S2)c(=O)n1 [Compound #2]", "CCID50 CEM", "µM", 103]
]}

Now for the compound whose CCID50 CEM we want.
query: I'd like to know its CCID50 CEM. The compound in question is Cc1cn([C@H]2C[C@H](N=[N+]=[N-])[C@@H](CO)O2)c(=O)[nH]c1=O [AZT, 3′-azido-3′-deoxythymidine, reference compound]
result: 500

====

ID50 Jurkat values for the molecules below.
System: HTLV-IIIb
Protocol Text: HIV-1 acutely infected cell lines, p24 antigen levels
Type: cell-based
Settings: Jurkat cells infected with HTLV-IIIb, p24 antigen at day 6
# value in µg/mL; strip the unit string

Reference set (2 entries):
{"columns": ["Molecule", "Measurement Target", "ID50 Jurkat / µg/mL"],
 "data": [
  ["Cc1cn([C@H]2C[C@H](N=[N+]=[N-])[C@@H](CO)O2)c(=O)[nH]c1=O [AZT, 3′-azido-3′-deoxythymidine, reference compound]", "HTLV-IIIb", 0.01],
  ["Nc1nc(=O)n([C@H]2CO[C@@H](CO)S2)cc1F", "HTLV-IIIb", 3.5]
]}

query: I'd like to know its ID50 Jurkat. The molecule in question is `Nc1ccn([C@H]2CO[C@@H](CO)S2)c(=O)n1`
result: 3.0

query: I'd like to know its ID50 Jurkat. The molecule in question is `Nc1ccn([C@@H]2CO[C@H](CO)S2)c(=O)n1`
result: 1.8

query: I'd like to know its ID50 Jurkat. The molecule in question is `Nc1nc(=O)n([C@@H]2CO[C@H](CO)S2)cc1F`
result: 6.0
